target: CRAC channel (endogenous SOC in HEK293 cells) (Homo sapiens); construct: endogenous in cells; host or cells: HEK293 (ECACC); test: HEK Calcium Influx Assay (FLIPR); type: cell-based; details: numeric values of Table 2, read-out: inhib. [@ 10 μM] FLIPR
Sequence (Q96D31 whole entry): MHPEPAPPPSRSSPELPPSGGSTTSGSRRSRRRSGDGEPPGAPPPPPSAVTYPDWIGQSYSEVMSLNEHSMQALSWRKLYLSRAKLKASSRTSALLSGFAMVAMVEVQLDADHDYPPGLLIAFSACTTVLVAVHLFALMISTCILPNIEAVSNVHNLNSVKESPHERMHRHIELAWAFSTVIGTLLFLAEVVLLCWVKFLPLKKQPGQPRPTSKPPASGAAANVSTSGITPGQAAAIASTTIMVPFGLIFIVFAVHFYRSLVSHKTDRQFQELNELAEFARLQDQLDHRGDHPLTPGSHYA
endpoint: inhibition at 10 µM (%)
Numeric only. Scale: %

Look up inhibition at 10 µM: Cc1cc(OCC2CCC2)ncc1-c1cc(C(=O)Nc2c(F)cncc2F)nn1C
121

Please report the recorded inhibition at 10 µM for COCc1cc(C)c(-c2cc(C(=O)Nc3c(F)cccc3F)nn2C)cn1 .
67

Form field: reported inhibition at 10 µM of CCOc1cc(C)c(-c2cc(C(=O)Nc3c(F)cncc3F)nn2C)cn1
95
